# studyTarget: hGLP-1R (Homo sapiens, UniProt P43220)
# Sequence (P43220 24-463): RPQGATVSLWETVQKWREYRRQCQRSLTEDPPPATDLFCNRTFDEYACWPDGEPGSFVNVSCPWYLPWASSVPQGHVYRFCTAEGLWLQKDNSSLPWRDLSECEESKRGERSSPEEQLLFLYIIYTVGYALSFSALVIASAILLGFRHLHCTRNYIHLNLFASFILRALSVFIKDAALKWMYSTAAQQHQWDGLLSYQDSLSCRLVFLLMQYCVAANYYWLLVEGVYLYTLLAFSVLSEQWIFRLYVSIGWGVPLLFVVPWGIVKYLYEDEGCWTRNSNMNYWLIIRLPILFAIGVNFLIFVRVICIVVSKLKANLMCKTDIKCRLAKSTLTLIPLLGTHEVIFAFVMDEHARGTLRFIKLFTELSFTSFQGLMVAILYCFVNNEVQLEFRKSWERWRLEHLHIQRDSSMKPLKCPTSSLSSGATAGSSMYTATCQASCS
# assayInfo: cell-based or functional assay
measuredMetric: Relative cAMP EC50
A bare number is not enough; add the unit after it.

Example entries begin here.
binder	Relative cAMP EC50
YXQGTFTSDFSXXLDKKAQXAFIEWLLEGGPSSGAPXPSGE (synthetic construct; SITE 2: note = 2-Aminoisobutyric Acid; SITE 12: note = L-ornithine; SITE 13: note = alpha-methyl-leucine; SITE 17: note = Lysine is chemically modified through conjugation of the epsilon-amino group of the Lysine side chain with (2-[2-(2-Amino-ethoxy)-ethoxy]-acetyl)-(gamma-Glu)) [Example 137]	3.18 nM
YXQGTFTSDFSKXLDKKAQXAFIEYLLAGGPSSGEPPPSEGX (Aib, αMeL, acylated K, C-terminal AEEA amide; synthetic construct; SITE 2: note = 2-Aminoisobutyric Acid; SITE 13: note = alpha-methyl-leucine; SITE 17: note = Lysine is chemically modified through conjugation of the epsilon-amino group of the Lysine side chain with (2-[2-(2-Amino-ethoxy)-ethoxy]-acetyl)-(gamma-Glu)-CO-(CH2) 18-CO2H; SITE 20: n) [Example 32]	2.55 nM
YXQGTXTSDXSILLDKKAQXAFIEXLEEGGPSSGAPPPSGSGE (synthetic construct; SITE 2: note = 2-Aminoisobutyric Acid; SITE 6: note = alpha-methyl-2-fluoro-L-phenylalanine; SITE 10: note = 3-(4-Pyridyl)-L-alanine; SITE 17: note = Lysine is chemically modified through conjugation of the epsilon-amino group of the Lysine side chain with (gamma-Glu)2-CO-(CH2)1) [Example 666 (SEQ ID NO: 672)]	0.337 nM
YXQGTXTSDXXIXLDXKAQXEFIEXLIEGGPPSXXPPPEGE (non-natural residues; lipidated Lys; C-terminal amide; synthetic construct; SITE 2: note = 2-Aminoisobutyric Acid; SITE 6: note = alpha-methyl-2-fluoro-L-phenylalanine; SITE 10: note = 3-(4-Pyridyl)-L-alanine; SITE 11: note = alpha-methyl-L-serine; SITE 13: note = alpha-methyl-leucine; SITE 16: note = L-ornithine; SITE 17: note = Lysine is chemically mo) [Example 1194]	0.51 nM
YXQGTXTSDXSILLDKKAQXAFIEYLEEGGPSSGAPPPSGTGE (synthetic construct; SITE 2: note = 2-Aminoisobutyric Acid; SITE 6: note = alpha-methyl-2-fluoro-L-phenylalanine; SITE 10: note = 3-(4-Pyridyl)-L-alanine; SITE 17: note = Lysine is chemically modified through conjugation of the epsilon-amino group of the Lysine side chain with (2-[2-(2-Amino-ethoxy))) [Example 662 (SEQ ID NO: 668)]	0.946 nM

We next turn to a different binder, shown below.
-- ask Quick one: Relative cAMP EC50 for YXQGTXTSDXSILLDKKAQXAFIEYLEEGGPSSGAPPPSGEEE (non-natural residues; Lys acylated C18 diacid; C-terminal amide; synthetic construct; SITE 2: note = 2-Aminoisobutyric Acid; SITE 6: note = alpha-methyl-2-fluoro-L-phenylalanine; SITE 10: note = 3-(4-Pyridyl)-L-alanine; SITE 17: note = Lysine is chemically modified through conjugation of the epsilon-amino group of the Lysine side chain with (gamma-Glu)2-CO-(CH2)1) [Example 611] ?
-- reply 1.63 nM
